Recorded melting point for the following molecules
assay.metric: melting point

1. CCn1nc(-c2ccc(Oc3nc4cccnc4n3C)cc2)c2nccnc21 | 161 to 162 °C
2. CCn1nc(-c2ccc(Oc3nc4cccnc4n3C)cc2)c2ncncc21 | 218 to 220 °C
3. CCn1nc(-c2ccc(Oc3nc4cccnc4n3C)cc2)c2ncccc21 | 176 to 177 °C
4. c1ccc2[nH]c(Oc3ccc(-c4c5n(c6cccnc46)CCCC5)cc3)nc2c1 | 264 °C (dec.)
5. CCn1nc(-c2ccc(Oc3nc4ccccc4n3CCO)cc2)c2ncccc21 | 183 to 184 °C
6. CCn1nc(-c2ccc(Oc3nc4ccccc4n3CC(C)(C)O)cc2)c2ncccc21 | 152 to 153 °C
7. CC(C)n1nc(-c2ccc(Oc3nc4cccnc4n3C)cc2)c2ncccc21 | 163 to 164 °C
